The following substances are shown together with reported aPTT ratio (INR) values.
Tested on: blood coagulation
Experiment: PT and aPTT assay in cynomolgus monkeys (Example 45)
Assay type: in vivo
Conditions: day −5; escalating dose regimen; platelet poor plasma
# answer = number (no unit)

substance	aPTT ratio (INR)
ISIS 416850: MOE gapmer, nucleobases 1275 to 1318 of SEQ ID NO: 1 (Table 8) (antisense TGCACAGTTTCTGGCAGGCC; MOE gapmer, wing and gap sizes not given here)	1.00

### Prompt Assign aPTT ratio (INR) to the following record: ISIS 416838: MOE gapmer, nucleobases 1018 to 1042 of SEQ ID NO: 1 (Table 6) (antisense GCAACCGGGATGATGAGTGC; MOE gapmer, wing and gap sizes not given here)
### Response 1.00
